meta.source: patent US20230265151A1

- target-or-system: T1, human GLP-1 receptor (human, UniProt P43220 24-463)
- T1 construct: whole, on cells; also called hGLP-1R; human glucagon-like peptide-1 receptor
- protocol-description: SPA competition vs [125I]-GLP-1, hGLP-1R membranes
- Description: The binding buffer contains 25 mM HEPES, pH 7.4, 2.5 mM CaCl₂, 1 mM MgCl₂, 0.1% (w/v) bacitracin, 0.003% (w/v) TWEEN®-20, and Roche Complete™ Protease Inhibitors without EDTA. Data are analyzed using four-parameter (curve maximum, curve minimum, IC₅₀, Hill slope) nonlinear regression routines (Genedata Screener, version 12.0.4, Genedata AG, Basal, Switzerland). […] Geometric Means are calculated as follows: […]
measured-metric: Ki (pM)
Give bare numbers, in pM.

Look over these answered cases.
[[record]]
binder = "YXEGTXTSDKSIXLDXKAQXEXIXXLIEGGPSSGAPPPS (Aib2, αMeF(2F)6, K10(Z1), αMeL13, Orn16, K17(Z1), Aib20, αMeF22, D-Glu24, αMeY25, C-term NH2; Z1=AEEA2-(γ-Glu)-CO-(CH2)10-CH3)"
measured_number = 211

[[record]]
binder = "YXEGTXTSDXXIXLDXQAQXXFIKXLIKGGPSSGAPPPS (Aib2, αMeF(2F)6, 4Pal10, Aib11, αMeL13, Orn16, Aib20, Orn21, K24(Z1), αMeY25, K28(Z1), C-term NH2; Z1=AEEA2-Trx-(γ-Glu)-CO-(CH2)12-CO2H)"
measured_number = 121

[[record]]
binder = "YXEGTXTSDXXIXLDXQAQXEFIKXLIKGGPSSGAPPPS (Aib2, αMeF(2F)6, 4Pal10, Aib11, αMeL13, Orn16, Aib20, K24(Z1), αMeY25, K28(Z1), C-term NH2; Z1=AEEA3-(γ-Glu)-(10-(4-carboxyphenoxy)decanoyl))"
measured_number = 352

[[record]]
binder = "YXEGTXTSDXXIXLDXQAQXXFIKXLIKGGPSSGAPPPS (Aib2, αMeF(2F)6, 4Pal10, Aib11, αMeL13, Orn16, Aib20, Orn21, K24(Z1), αMeY25, K28(Z1), C-term NH2; Z1=AEEA2-(γ-Glu)-CO-(CH2)12-CO2H)"
measured_number = 346

[[record]]
binder = "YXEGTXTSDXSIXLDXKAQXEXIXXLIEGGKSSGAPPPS (Aib2, αMeF(2F)6, 4Pal10, αMeL13, Orn16, K17(Z1), Aib20, 3,5FPhe22, D-Glu24, αMeY25, K31(Z1), C-term NH2; Z1=AEEA2-(γ-Glu)-CO-(CH2)12-CO2H)"
measured_number = 1050

[[record]]
binder = "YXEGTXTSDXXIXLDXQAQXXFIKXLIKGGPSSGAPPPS (Aib2, αMeF(2F)6, 4Pal10, Aib11, αMeL13, Orn16, Aib20, Orn21, K24(Z1), αMeY25, K28(Z1), C-term NH2; Z1=AEEA-Trx-(γ-Glu)-CO-(CH2)12-CO2H)"
measured_number = 254

[[record]]
binder = "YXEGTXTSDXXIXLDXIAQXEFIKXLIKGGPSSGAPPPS (Aib2, αMeF(2F)6, 4Pal10, Aib11, αMeL13, Orn16, Aib20, K24(Z1), αMeY25, K28(Z1), C-term NH2; Z1=AEEA2-(γ-Glu)-CO-(CH2)12-CO2H)"
measured_number = 939


Query binder follows.
Input line: Which Ki is listed for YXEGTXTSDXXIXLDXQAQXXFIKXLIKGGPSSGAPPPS (Aib2, αMeF(2F)6, 4Pal10, Aib11, αMeL13, Orn16, Aib20, Orn21, K24(Z1), αMeY25, K28(Z1), C-term NH2; Z1=AEEA2-(γ-Glu)2-CO-(CH2)12-CO2H) ?
Output line: 343
